Measured melting point accompanies every entry in the list below.

Consider the worked cases shown below.
CCn1c(=O)c2c(nc(C=Cc3cccc(C(=O)O)c3)n2C)n(CC)c1=O
260 to 262 °C
COS(=O)(=O)c1ccc(Cl)cc1NC(=O)/C=C/c1ccc2ccccc2c1
178 to 180 °C
CN(C(CCN1C(=O)c2ccccc2C1=O)C(=O)NO)S(=O)(=O)c1ccc(Oc2ccc(F)cc2)cc1 (centres undefined)
100 to 101 °C
O=S(=O)(Cc1cn(C23CC4CC(CC(C4)C2)C3)nn1)c1cc(Cl)ccc1Cl
198 to 199 °C
CC(C)(C)C(=O)Nc1nc(O)c2cc(C=CCOC3CCCCO3)cnc2n1 (centres undefined)
166 to 167 °C

Record request: melting point value, item CCCCCc1cc(OC)c(C2=C[C@H]3CC[C@]2(CO)C3(C)C)c(OC)c1
26 to 27 °C

---

READOUT_LABEL: melting point

Consider the worked cases shown below.
OC(CNCCNc1ccc2[nH]ncc2c1)COc1ccccc1 (stereo not given)
150 to 165 °C
Cc1n[nH]c(C)c1[C@H](C)NC(=O)COc1cc(C(F)(F)F)c2c(-c3ccccc3)nn(C)c2n1
145 to 147 °C
CC(C)Oc1ccccc1OCCCN1CCC(C(O)(c2ccc(F)cc2)c2ccc(F)cc2)CC1
75 to 79 °C
Nc1c(Cl)cc(C(=O)O)c2c1CCCO2
226 °C

Attention now shifts to the item below.
Record request: melting point value, item CC(=O)N1c2ccccc2CCc2ccc(C(=O)O)cc21
189 to 190 °C

---

Measured melting point accompanies every entry in the list below.

Consider the worked cases shown below.
CCCCNc1ncnc2c1ncn2CCCN1CCC(NC(=O)c2ccccc2)CC1
190 to 192 °C
Nc1ccc(S(=O)(=O)c2cnc(N)s2)cc1
218 to 219 °C
Oc1cccc(C2CCCN2Cc2cccnc2)c1 (stereo not given)
129 to 131 °C

Record request: melting point value, item CC(C)Oc1c(C(=O)O)oc(C(=O)O)c1OC(C)C
131 to 132 °C

Queued: CCC1(C)CC(=NO)C(C)C(C)(CC)N1OC(C)c1ccccc1 (stereo not given)
130 to 145 °C

---

Measured melting point accompanies every entry in the list below.

Record request: melting point value, item C#Cc1cccc(Nc2ncnc3cc(OCCOC(C)=O)c(OCCOC(C)=O)cc23)c1
137 to 138 °C

Queued: COc1ccc2sc(C(N)=O)c(SC)c2c1
171 to 173 °C

Queued: COc1ccc(-c2nc(Sc3ccc(F)cc3)[nH]c2-c2ccc(OC)cc2)cc1
106 °C

Queued: CC1(C)CCC(C)(C)c2cc(N(CCCCOCc3ccccc3)C(=O)Nc3ccc(C(=O)O)cc3)ccc21
158 to 162 °C

---

READOUT_LABEL: melting point

N#Cc1cnc2c(sc3ccccc32)c1Nc1ccc(Cl)cc1F
250 to 251 °C
CN1CCN(c2ccc(-c3ccc4c(c3)C=C(C(=O)Nc3ccc(CN(C)C5CCOCC5)cc3)CCO4)cc2)CC1
220 to 221 °C
CN(C)CN=c1[nH]c2cnccc2s1
125 to 127 °C

Record request: melting point value, item CC(CCC(=O)Cl)C1CCC2C3CCC4CCCCC4(C)C3CCC12C (stereo unspecified)
104 to 106 °C

Queued: OC(c1ccccn1)c1cc(C(F)(F)F)nc2c(C(F)(F)F)cccc12 (stereo unspecified)
133 to 135 °C

---

Measured melting point accompanies every entry in the list below.

Cc1cc(-c2cc(C(F)F)n3ncc(C(=O)O)c3n2)ccc1C(F)(F)F
217 °C
Clc1ccc2nc(-c3ccccc3)c(-c3ccnnc3)n2n1
200 to 207 °C
CCOc1cc([C@H]2COCC[C@H]2NC(=O)c2ccc(C(=O)OC)cc2)ccc1OC
166 to 168 °C
Oc1cccc2c1CCCC2N1CCCC1 (stereo not drawn)
151 to 153 °C
Cn1cc(C(=O)O)c(=O)c2c3cc(F)c(N4CCN(c5ccc(F)cc5)CC4)cc3ncc21
346 °C
Cc1ccc(CCCOc2c(C)cc(-c3nnn(C)n3)cc2C)nn1
114 to 115 °C
Cn1cc(Br)nc(Br)c1=O
94 to 95 °C
CC(=O)OC1CC(C)(C)N(OC(=O)C=Cc2ccccc2)C(C)(C)C1
130 to 132 °C

Record request: melting point value, item CCCS(=O)c1ccc(N)c([N+](=O)[O-])c1 (stereo not drawn)
109 to 112 °C

Queued: Brc1ccc(-c2cc(-c3ccc(Br)cc3)cc(-c3ccc(Br)cc3)c2)cc1
254 to 255 °C

Queued: CN1Cc2c(C(=O)OCCO)ncn2-c2ccccc2C1=O
222 to 223 °C

Queued: COc1cc(Cl)cc2c1CCC2
38 to 40 °C

Queued: COc1ccc(N2CCN(C)[C@@H]3Cc4ccccc4[C@H]32)c(CO)c1 (relative stereo)
179 to 183 °C

---

Measured melting point accompanies every entry in the list below.

Consider the worked cases shown below.
Clc1cc(Cl)cc(-c2cc3cc(Cl)cc(Cl)c3[nH]2)c1
189 to 190 °C
CC=CC=C1SC(=S)N(CC(=O)O)C1=O
216 to 218 °C
CCOC(=O)/C=C/c1cn(Cc2ccc(OCc3ccccc3)cc2)nc1-c1ccc(F)cc1
113 to 114 °C
CC(=O)CC(=O)N(C)c1cccc(-c2ccc3nnc(C)n3n2)c1
138 to 141 °C
CC1(c2ccccc2)C(=O)Nc2cc(Br)cc(Br)c2C1=O (stereo unspecified)
256 to 257 °C

Attention now shifts to the item below.
Record request: melting point value, item N#Cc1c2ccccc2c(-c2cc(Br)c(O)c(Br)c2)c2c1sc1ccccc12
321 to 323 °C

---

READOUT_LABEL: melting point

Consider the worked cases shown below.
COc1ccc(CN(CC2CCOCC2)S(=O)(=O)c2ccc(Cl)cc2)cc1C(=O)O
158 to 159 °C
O=C1Nc2cc(Cl)ccc2Cn2cccc21
177 to 179 °C
Cn1c(-c2ccncc2)n[nH]c1=O
249 to 251 °C
Nc1c(-c2ccccc2)nn2c1ccc1ccccc12
255 to 258 °C
CN(C)CCCN(C)C(=O)NC(Cc1c[nH]c2ccccc12)C(=O)CCc1cc(C(F)(F)F)cc(C(F)(F)F)c1 (stereo unspecified)
135 to 137 °C

Attention now shifts to the item below.
Record request: melting point value, item C(=C1CC(c2ccccc2)Cc2ccccc21)c1cncn1Cc1ccccc1 (stereo unspecified)
198 °C

---

Measured melting point accompanies every entry in the list below.

Consider the worked cases shown below.
CCCCCCCCC1N=C(N)NC(Nc2cc(C(C)(C)C)ccc2OC)=N1 (stereo not drawn)
129 to 132 °C
CCOC(=O)c1cn(C2CC2)c2c(CN3CCCC3)c(N3CCOCC3)c(F)cc2c1=O
227 to 232 °C

Record request: melting point value, item CCOCc1cc2cc(Br)ccc2oc1=Nc1cccc(OC)c1
93 to 94 °C

Queued: CCc1cccc2c1[nH]c1c2ccc2cc[nH]c21
256 to 258 °C

Queued: C[C@H](C(=O)O)c1ccc2cc(OCCCCCCc3ccc(OCc4ccccc4)c(OCc4ccccc4)c3)ccc2c1
80 to 82 °C

Queued: CCOC(=O)CC(=O)c1cc(C(CC(C)C)NC(=O)Cc2ccc(NC(=O)Nc3ccccc3Cl)cc2)no1 (stereo not drawn)
150 to 152 °C

Queued: COC(=O)NCC(=CF)c1ccccc1
73 to 74 °C

Queued: NNC(=O)c1[nH]cc(OCc2ccccc2)c(=O)c1Br
184 °C

Queued: CCOC(=O)CC(=Cn1cc[nH]c1=O)c1ccc(OC)c(OC2CCCC2)c1
164 °C

Queued: CO[C@@H]1C[C@H](C)N(c2ccc(C#N)c3ccccc23)C1
88 to 89 °C

Queued: O=C(Nc1ccc(OCCCc2cccnc2)c2ccccc12)c1cc(F)cc(N2CCOCC2)c1
64 to 66 °C

Queued: COc1ccc(CC(O)c2ccccn2)cc1 (stereo not drawn)
110 to 112 °C

Queued: CC1CNCCC1n1c(=O)[nH]c2cc(Cl)ccc21 (stereo not drawn)
199 °C

Queued: COc1cc(N2CCN(Cc3ccc(CNC(C)=O)cc3)CC2)nc(OC)n1
89 to 90 °C

Queued: Cc1cc(C(=O)CBr)cn1S(=O)(=O)c1ccccc1
86 to 88 °C

Queued: CC(=O)c1cccc(NC(=O)C=C(C)Cl)c1
152 °C

Queued: COC(=O)c1ccc([C@H]2CC[C@H](C=O)CC2)cc1
84 to 85 °C

Queued: Cc1nccc(N2CCC(CN3CCN(C(=O)c4ccc(F)cc4)CC3)CC2)n1
127 to 128 °C

Queued: C/C(=N\OC(=O)c1ccc(CN2CCOCC2)cc1)[C@H]1CC[C@H]2[C@@H]3CCC4=CC(=O)CC[C@]4(C)[C@H]3CC[C@]12C
166 to 168 °C

Queued: O=C(O)c1ccc2c(c1)Sc1ccccc1O2
253 °C

Queued: C#CCN1C[C@H](OC(C)=O)CC1=O
46.5 to 47.5 °C

Queued: CSc1ncc(C(=N)NO)cc1Cl
139 to 143 °C

Queued: CC(=O)Oc1cc(OC(C)=O)c2c(c1)OC(c1ccc(OC(C)=O)c(OC(C)=O)c1)CC2 (stereo not drawn)
143 to 144 °C

Queued: CCC1C(=O)NC1C=COC(C)=O (stereo not drawn)
102 °C

Queued: CCOc1ccc(S(=O)(=O)NCc2ccccn2)cc1-c1nc2cccnc2c(=O)[nH]1
230 to 231 °C

Queued: COc1ccc(CC(=O)N2CCC3(CC2)Cc2ccccc2O3)cc1
87 to 88 °C

Queued: CCOC(=O)C(NC(C)=O)(C(=O)OCC)c1ccc([N+](=O)[O-])cn1
82 to 83 °C

Cited source: a melting point compilation (Tetko et al.; mined from patent text by program, amines drawn as free bases though some values may be those of a salt)
